experiment: Maternal toxicokinetics, rat EFD study; assay type: in vivo; settings: female, Wistar Han, rat, in vivo, po, 1000 mg/kg/day
metric-name: Cmax (µg/mL)

- CC(C)(C)[C@H](NC(=O)C(F)(F)F)C(=O)N1C[C@H]2[C@@H]([C@H]1C(=O)N[C@H](C#N)C[C@@H]1CCNC1=O)C2(C)C [NMV, nirmatrelvir]: 65.4

###

test: Maternal toxicokinetics, rat EFD study; type: in vivo; settings: female, Wistar Han, rat, in vivo, po, 100 mg/kg/day
metric-name: Cmax (ng/mL)

• CC(C)(C)[C@H](NC(=O)C(F)(F)F)C(=O)N1C[C@H]2[C@@H]([C@H]1C(=O)N[C@H](C#N)C[C@@H]1CCNC1=O)C2(C)C = 29000

###

assay: Fertility and early embryonic development study in rats; type: in vivo, rat; conditions: both, Wistar Han, rat, in vivo, oral
metric-name: NOAEL

- CC(C)(C)[C@H](NC(=O)C(F)(F)F)C(=O)N1C[C@H]2[C@@H]([C@H]1C(=O)N[C@H](C#N)C[C@@H]1CCNC1=O)C2(C)C: 1000 mg/kg/day

###

assay: Rat embryo-fetal development; conditions: female, Wistar Han, rat, in vivo, oral
metric-name: NOAEL

• CC(C)(C)[C@H](NC(=O)C(F)(F)F)C(=O)N1C[C@H]2[C@@H]([C@H]1C(=O)N[C@H](C#N)C[C@@H]1CCNC1=O)C2(C)C = 1000 mg/kg/day
